Assay: Solubility determination in PBS by LC/MS/MS
Conditions: PBS pH 4.0, 25 °C, pH 4, aqueous buffer, kinetic from dmso stock
In this section we review reported solubility at 2 h values for a set of molecules.
VALUE_KIND: solubility at 2 h

- COCCOCCOCCOc1ccc(C2=NC(C)(C(=O)O)CN2)c(O)c1 (centres unmarked) [Example 4]: 313 µM
- COCCOCCOc1ccc(C2=NC(C)(C(=O)O)CO2)c(O)c1 (centres unmarked) [Example 1]: 309 µM
- COCCOCCOCCOc1ccc(C2=NC(C)(C(=O)O)CO2)c(O)c1 (centres unmarked) [Example 2]: 297 µM
- COCCOCCOCCOc1cccc(C2=NC(C)(C(=O)O)CN2)c1O (centres unmarked) [Example 6]: 311 µM
- COCCOCCOCCOc1ccc(-n2ccc(C(=O)O)n2)c(O)c1 [Example 8]: 300 µM
